- System: barley (HORVW)
- Protocol Text: Postemergence herbicidal safening, greenhouse, visual injury: barley (HORVW)
- Measurement Context: Compound 1 Methyl ester 35 g/ha alone
Property: HORVW Ob (Observed values)
Answer format: number, then unit.

### Prompt Returns the measured HORVW Ob (Observed values) for the input molecule. Input: `COC(=O)c1nc(-c2ccc(Cl)c(OC)c2F)cc(N)c1Cl`
### Response 50%

====

- System: wheat (Triticum aestivum L; TRZAW)
- Protocol Text: Postemergence herbicidal safening, greenhouse, visual injury: wheat (TRZAW)
- Assay type: in vivo
- Measurement Context: Compound 1 Methyl ester 35 g/ha alone
Property: TRZAW Ob (Observed values) (%)
Reply with just the number (in %).

### Prompt Can you look up TRZAW Ob (Observed values) on wheat (Triticum aestivum L; TRZAW) for `COC(=O)c1nc(-c2ccc(Cl)c(OC)c2F)cc(N)c1Cl` ?
### Response 35

====

- Test system: wheat (Triticum aestivum L; TRZAS)
- Protocol Text: Postemergence herbicidal safening, greenhouse, visual injury: wheat
- Assay type: in vivo
- Measurement Context: applied alone, 140 g/ha
Counter-ions that a name gives are not always drawn.
Property: TRZAS Ob (%)
Give your result in % as a bare value.

                             compound  readout_unit  assay_result
0  FC(F)(F)C(=NOCC1OCCO1)c1ccc(Cl)cc1             %             0

### Prompt Please provide the recorded TRZAS Ob for CCOC(=O)C1=NN(c2ccc(Cl)cc2Cl)C(C)(C(=O)OCC)C1 (centres unmarked) , tested on wheat (Triticum aestivum L; TRZAS).
### Response 0

### Prompt Please give the result for CC1(C)OC(c2ccco2)CN1C(=O)C(Cl)Cl (centres unmarked) too.
### Response 0

### Prompt And COc1c(Cl)ccc(-c2cc(N)c(Cl)c(C(=O)O)n2)c1F [Compound 1 TEA salt] ?
### Response 26

### Prompt And for `N#C/C(=N\OCC1OCCO1)c1ccccc1` ?
### Response 0

====

- Tested on: barley (HORVW)
- Protocol Text: Postemergence herbicidal safening, greenhouse, visual injury: barley (HORVW)
- Measurement Context: safener 17.5 g/ha alone
Property: HORVW Ob (Observed values) (%)
Numbers only here, please. The scale is %.

Illustrative cases are given below, each with its answer.
In [3]: df
Out[3]:
                                   compound                    property  assay_result
0  NC(=O)NS(=O)(=O)c1ccccc1Cl [Compound 2-CBSU, reference compound]  HORVW Ob (Observed values)             0
1  C=CCN(CC=C)C(=O)C(Cl)Cl [Dichlormid, N,N-diallyl-2,2-dichloroacetamide, reference compound]  HORVW Ob (Observed values)             0

### Prompt Given the compound CC1COc2ccccc2N1C(=O)C(Cl)Cl (racemic) [Benoxacor, reference compound] , what is its reported HORVW Ob (Observed values)?
### Response 0

### Prompt And for CC1(C)CN2C(=O)CCC2(C)N(C(=O)C(Cl)Cl)C1 (racemic) [Dicyclonon, reference compound] ?
### Response 0

### Prompt Input `O=C(C(Cl)Cl)N1CCOC12CCCCC2`
### Response 0

### Prompt What do you get for CCOC(=O)C1=NN(c2ccc(Cl)cc2Cl)C(C)(C(=O)OCC)C1 (stereo not shown) ?
### Response 0

### Prompt Quick one: `O=C(O)C1=NOC(c2ccccc2)(c2ccccc2)C1`
### Response 0

====

- Tested on: barley (HORVW)
- Protocol Text: Postemergence herbicidal safening, greenhouse, visual injury: barley (HORVW)
- Measurement Context: safener 4.4 g/ha alone
Reported HORVW Ob (Observed values) by item:
Field format: number, assumed %, no unit text.

Check out these entries, answers already filled in.
>>> df
                                   compound                    property  assay_result
0  CC1(C)CN2C(=O)CCC2(C)N(C(=O)C(Cl)Cl)C1 (racemic) [Dicyclonon, reference compound]  HORVW Ob (Observed values)             0
1  NC(=O)NS(=O)(=O)c1ccccc1Cl [Compound 2-CBSU, reference compound]  HORVW Ob (Observed values)             0

Now let's try a different one.
### Prompt Reported HORVW Ob (Observed values) for `O=C(O)C1=NOC(c2ccccc2)(c2ccccc2)C1` : what is it?
### Response 0

====

- Test system: wheat (Triticum aestivum L; TRZAS)
- Protocol Text: Postemergence herbicidal safening, greenhouse, visual injury: wheat
- Type: in vivo
- Measurement Context: applied alone at 140 g/ha
Where a name gives a salt, the structure may show the parent alone.
# TRZAS Ob per record follows
// note: answer is a bare numeric in %

Answered cases to consult:
In [3]: df
Out[3]:
                                   compound  assay_result
0  O=C(C(Cl)Cl)N1CCOC12CCCCC2 [AD67, reference compound]             0
1  CC1(C)CN2C(=O)CCC2(C)N(C(=O)C(Cl)Cl)C1 (racemic) [Dicyclonon, reference compound]             0
2  C=CCN(CC=C)C(=O)C(Cl)Cl [Dichlormid, N,N-diallyl-2,2-dichloroacetamide, reference compound]             0
3  NC(=O)NS(=O)(=O)c1ccccc1Cl [Compound 2-CBSU, reference compound]             0
4  CC1COc2ccccc2N1C(=O)C(Cl)Cl (racemic) [Benoxacor, reference compound]             0

### Prompt Dear colleague, I am looking for the recorded TRZAS Ob of the following compound: COc1c(Cl)ccc(-c2cc(N)c(Cl)c(C(=O)O)n2)c1F [Compound 1 TEA salt]
### Response 26

====

- Test system: bird's-eye speedwell (Veronica persica L; VERPE)
- Protocol Text: Postemergence herbicidal activity, greenhouse, visual injury: bird's-eye speedwell
- Format: in vivo
- Set-up: key: visual injury, 0–100%: 0 = no injury, 100 = complete kill
- Measurement Context: applied alone at 140 g/ha
Counter-ions that a name gives are not always drawn.
Property: VERPE Ob (%)
Express it in %; write the number only.

                                   compound  readout_unit  assay_result
0  COc1c(Cl)ccc(-c2cc(N)c(Cl)c(C(=O)O)n2)c1F [Compound 1 TEA salt]             %            85
1  C=CCN(CC=C)C(=O)C(Cl)Cl [Dichlormid, N,N-diallyl-2,2-dichloroacetamide, reference compound]             %             0
2  NC(=O)NS(=O)(=O)c1ccccc1Cl [Compound 2-CBSU, reference compound]             %             0
3  CC1(C)CN2C(=O)CCC2(C)N(C(=O)C(Cl)Cl)C1 (racemic) [Dicyclonon, reference compound]             %             0
4  O=C(C(Cl)Cl)N1CCOC12CCCCC2 [AD67, reference compound]             %             0

### Prompt May I ask what VERPE Ob has been recorded for CC1COc2ccccc2N1C(=O)C(Cl)Cl (racemic) [Benoxacor, reference compound] ?
### Response 0

====

- Test system: durum wheat (Triticum durum L; TRZDU)
- Protocol Text: Postemergence herbicidal safening, greenhouse, visual injury: durum wheat
- Assay type: in vivo
- Measurement Context: safener 8.8 g/ha alone
Entries and their TRZDU Ob (Observed values)
Include the unit after the number when you answer.

### Prompt durum wheat (Triticum durum L; TRZDU) / TRZDU Ob (Observed values) / NC(=O)NS(=O)(=O)c1ccccc1Cl [Compound 2-CBSU, reference compound] : value?
### Response 0%

### Prompt Also check C=CCN(CC=C)C(=O)C(Cl)Cl [Dichlormid, N,N-diallyl-2,2-dichloroacetamide, reference compound]
### Response 0%

### Prompt Can you handle O=C(O)C1=NOC(c2ccccc2)(c2ccccc2)C1 [Isoxadifen] next?
### Response 0%

### Prompt One more molecule: O=C(C(Cl)Cl)N1CCOC12CCCCC2 [AD-67]
### Response 0%

### Prompt Same lookup for CCOC(=O)C1=NN(c2ccc(Cl)cc2Cl)C(C)(C(=O)OCC)C1 (stereo not drawn) [Mefenpyr-diethyl] , please.
### Response 0%

### Prompt Ok, now CC1COc2ccccc2N1C(=O)C(Cl)Cl (racemic) [Benoxacor, reference compound]
### Response 0%

====

- Tested on: corn poppy (Papaver rhoeas L; PAPRH)
- Protocol Text: Postemergence herbicidal activity, greenhouse, visual injury: corn poppy
- Format: in vivo
- Measurement Context: applied alone, 17.5 g/ha
The following molecules are listed with their measured PAPRH Ob values.
Answer using only a numeral; do not append any unit.

>>> df
                                   molecule                   experimental_target  assay_result
0  FC(F)(F)C(=NOCC1OCCO1)c1ccc(Cl)cc1 [Fluxofenim]  corn poppy (Papaver rhoeas L; PAPRH)             0
1  O=C1OC(=O)c2cccc3cccc1c23 [Naphthalic anhydride]  corn poppy (Papaver rhoeas L; PAPRH)             0
2  CCOC(=O)C1=NN(c2ccc(Cl)cc2Cl)C(C)(C(=O)OCC)C1 (stereo not drawn) [Mefenpyr-diethyl]  corn poppy (Papaver rhoeas L; PAPRH)             0
3     Clc1cc(Cl)nc(-c2ccccc2)n1 [Fenclorim]  corn poppy (Papaver rhoeas L; PAPRH)             0
4  N#C/C(=N\OCC1OCCO1)c1ccccc1 [Oxabetrinil]  corn poppy (Papaver rhoeas L; PAPRH)             0

### Prompt Given the entry CC1(C)OC(c2ccco2)CN1C(=O)C(Cl)Cl (stereo not drawn) [Furilazole (MON 13900)] , report its measured PAPRH Ob.
### Response 0
